These data points were gathered from ChEMBL document CHEMBL3044986.

- Test system: Rattus norvegicus
- Assay explanation: Anti-inflammatory activity in Rattus norvegicus Wistar albino (rat) assessed as inhibition of carrageenan-induced paw edema at 50 mg/kg, po administered 30 min prior to carrageenan-challenge measured at 1 hr by plethysmometric analysis relative to control
- Type: functional
Measure: inhibition in vivo at 50 mg/kg (%)
Give a bare numeral; the unit % is implied.

// inhibition in vivo at 50 mg/kg value for COc1ccc(C2=NN(c3ccc(S(N)(=O)=O)cc3)C(c3cccc(OC)c3OC)C2)c(O)c1 (centres undefined) : 47.8

Briefly, inhibition in vivo at 50 mg/kg measured for COc1cccc(C2CC(c3ccc(F)cc3)=NN2c2ccc(S(N)(=O)=O)cc2)c1OC (centres undefined) : 59.4

# molecule COc1ccc(C2CC(c3ccc(F)cc3)=NN2c2ccc(S(N)(=O)=O)cc2)c(OC)c1 (centres undefined) ; its inhibition in vivo at 50 mg/kg = 63.7

Reported inhibition in vivo at 50 mg/kg ( COc1ccc(C2CC(c3ccc(Cl)cc3)=NN2c2ccc(S(N)(=O)=O)cc2)c(OC)c1 (centres undefined) ) = 43.5

====

- System: Rattus norvegicus
- Assay explanation: Anti-inflammatory activity in Rattus norvegicus Wistar albino (rat) assessed as inhibition of carrageenan-induced paw edema at 50 mg/kg, po administered 30 min prior to carrageenan-challenge measured at 2 hr by plethysmometric analysis relative to control
- Format: functional
Measure: inhibition in vivo at 50 mg/kg (%)
Form entry: value (%) — number only.

Entry COc1ccc(OC)c(C2CC(c3ccc(Cl)cc3)=NN2c2ccc(S(N)(=O)=O)cc2)c1 (stereo not drawn) , tested on Rattus norvegicus, has a reported inhibition in vivo at 50 mg/kg of 48.8

The compound COc1cc(OC)cc(C2CC(c3ccc(F)cc3)=NN2c2ccc(S(N)(=O)=O)cc2)c1 (stereo not drawn) , tested on Rattus norvegicus, showed inhibition in vivo at 50 mg/kg of 33.1

Let me check: COc1cc(OC)cc(C2CC(c3ccc(Cl)cc3)=NN2c2ccc(S(N)(=O)=O)cc2)c1 (stereo not drawn) , system Rattus norvegicus, measured inhibition in vivo at 50 mg/kg is 26.8

The value of inhibition in vivo at 50 mg/kg recorded for COc1ccc(C2CC(c3ccc(F)cc3)=NN2c2ccc(S(N)(=O)=O)cc2)cc1OC (stereo not drawn) when tested on Rattus norvegicus reads 53.5

Tested system Rattus norvegicus; inhibition in vivo at 50 mg/kg recorded for COc1ccc(C2=NN(c3ccc(S(N)(=O)=O)cc3)C(c3ccc(OC)cc3OC)C2)c(O)c1 (stereo not drawn) was 16.5

Record COc1cccc(C2CC(c3ccc(Cl)cc3)=NN2c2ccc(S(N)(=O)=O)cc2)c1OC (stereo not drawn) ; system Rattus norvegicus; inhibition in vivo at 50 mg/kg = 35.4

Summary: COc1ccc(C2CC(c3ccc(Cl)cc3)=NN2c2ccc(S(N)(=O)=O)cc2)c(OC)c1 (stereo not drawn) , Rattus norvegicus, inhibition in vivo at 50 mg/kg = 48.8

Item COc1ccc(C2CC(c3ccc(F)cc3)=NN2c2ccc(S(N)(=O)=O)cc2)c(OC)c1 (stereo not drawn) was tested on Rattus norvegicus; the reported inhibition in vivo at 50 mg/kg is 35.4

Value (inhibition in vivo at 50 mg/kg, Rattus norvegicus) for record COc1ccc(C2=NN(c3ccc(S(N)(=O)=O)cc3)C(c3cccc(OC)c3OC)C2)c(O)c1 (stereo not drawn) = 25.2

Tested system Rattus norvegicus; inhibition in vivo at 50 mg/kg recorded for COc1ccc(OC)c(C2CC(c3ccc(F)cc3)=NN2c2ccc(S(N)(=O)=O)cc2)c1 (stereo not drawn) was 30.7

The measured inhibition in vivo at 50 mg/kg that COc1ccc(C2CC(c3ccc(Cl)cc3)=NN2c2ccc(S(N)(=O)=O)cc2)cc1OC (stereo not drawn) showed for Rattus norvegicus is 64.6

Rattus norvegicus inhibition in vivo at 50 mg/kg of COc1cc(OC)cc(C2CC(c3ccc(OC)cc3O)=NN2c2ccc(S(N)(=O)=O)cc2)c1 (stereo not drawn) is 57.5

COc1cccc(C2CC(c3ccc(F)cc3)=NN2c2ccc(S(N)(=O)=O)cc2)c1OC (stereo not drawn) on Rattus norvegicus gives inhibition in vivo at 50 mg/kg = 40.1

====

- System: Staphylococcus aureus
- Assay explanation: Antibacterial activity against Staphylococcus aureus MTCC 96 at 4 mg/ml after 24 hr by agar well diffusion assay
- Type: functional
- Experimental parameters: MTCC 96, 24 h, read-out: DIZ
Please go through the items and note down their zone of inhibition at 4000 µg/mL.
Reply with just the number (in mm).

Value of measured zone of inhibition at 4000 µg/mL for the entry COc1cccc(C2CC(c3ccc(F)cc3)=NN2c2ccc(S(N)(=O)=O)cc2)c1OC (centres undefined) : 17.6

// COc1cc(OC)cc(C2CC(c3ccc(Cl)cc3)=NN2c2ccc(S(N)(=O)=O)cc2)c1 (centres undefined) : zone of inhibition at 4000 µg/mL value = 12

So, COc1ccc(C2CC(c3ccc(F)cc3)=NN2c2ccc(S(N)(=O)=O)cc2)c(OC)c1 (centres undefined) ? Its zone of inhibition at 4000 µg/mL was 15.3

Quick note, zone of inhibition at 4000 µg/mL for COc1cc(OC)cc(C2CC(c3ccc(F)cc3)=NN2c2ccc(S(N)(=O)=O)cc2)c1 (centres undefined) landed at 12.6

The molecule listed as COc1ccc(OC)c(C2CC(c3ccc(Cl)cc3)=NN2c2ccc(S(N)(=O)=O)cc2)c1 (centres undefined) shows zone of inhibition at 4000 µg/mL equal to 15.3

The molecule listed as COc1cccc(C2CC(c3ccc(Cl)cc3)=NN2c2ccc(S(N)(=O)=O)cc2)c1OC (centres undefined) shows zone of inhibition at 4000 µg/mL equal to 13.6

Reported zone of inhibition at 4000 µg/mL for COc1ccc(C2CC(c3ccc(Cl)cc3)=NN2c2ccc(S(N)(=O)=O)cc2)cc1OC (centres undefined) was 13.6

Per the records, this molecule ( COc1cc(OC)cc(C2CC(c3ccc(OC)cc3O)=NN2c2ccc(S(N)(=O)=O)cc2)c1 (centres undefined) ) has zone of inhibition at 4000 µg/mL equal to 13.3

zone of inhibition at 4000 µg/mL reading for COc1ccc(C2=NN(c3ccc(S(N)(=O)=O)cc3)C(c3cccc(OC)c3OC)C2)c(O)c1 (centres undefined) : 18.6

Entry COc1ccc(C2CC(c3ccc(Cl)cc3)=NN2c2ccc(S(N)(=O)=O)cc2)c(OC)c1 (centres undefined) , zone of inhibition at 4000 µg/mL reported as 18.3

Input O=C(O)c1cn(C2CC2)c2cc(N3CCNCC3)c(F)cc2c1=O . Output zone of inhibition at 4000 µg/mL: 26.6

The molecule COc1ccc(C2=NN(c3ccc(S(N)(=O)=O)cc3)C(c3ccc(OC)cc3OC)C2)c(O)c1 (centres undefined) showed zone of inhibition at 4000 µg/mL equal to 15.6

Lab book: zone of inhibition at 4000 µg/mL of COc1ccc(OC)c(C2CC(c3ccc(F)cc3)=NN2c2ccc(S(N)(=O)=O)cc2)c1 (centres undefined) noted as 13.6

In plain terms, COc1ccc(C2CC(c3ccc(F)cc3)=NN2c2ccc(S(N)(=O)=O)cc2)cc1OC (centres undefined) has a documented zone of inhibition at 4000 µg/mL of 14
